assay.system: T1, recombinant cynomolgus monkey PD-1 expressed with a C-terminal myc-myc-hexahistidine tag (cynomolgus monkey (Macaca fascicularis))
T1 construct: monomeric; also called MfPD-1-MMH
T1 chain: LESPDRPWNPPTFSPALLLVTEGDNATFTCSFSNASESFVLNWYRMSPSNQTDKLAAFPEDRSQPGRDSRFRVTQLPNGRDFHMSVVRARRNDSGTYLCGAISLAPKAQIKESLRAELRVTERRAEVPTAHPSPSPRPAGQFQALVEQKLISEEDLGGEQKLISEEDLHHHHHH
protocol.description: SPR, mAb captured, 37C;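 note: rate constants from fitting sensorgrams to a 1:1 binding model, with Kd computed as koff/kon and half-life as ln2/(60·koff), PD-1 flowing over anti-PD-1 antibody surfaces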
parameter: Kd (nM)

INSERT INTO assay_data (binder, observed) VALUES
  ('H2aM7795N (antibody, mouse IgG2a, V domains shown, Human variable regions, mouse IgG2a Fc; also called H2M7795N) VH: EVQVVESGGGLVEPGRSLRLSCKASGFTFDDYAMHWVRQTPGKALEWVSGINWSGNNIGYADSVKGRFTISKDDAKNSLYLQMNSLRPEDTALYYCTKDISITGTLDAFDVWGQGTMVTVSS VL: DIQMTQSPISVSASVGDRVTITCRASQGISNWLAWYQQKPGIAPKLLIYSASSLQSGVPSRFRGSGSGTDFTLTIGSLQPEDFATYYCQQAHSFPLTFGGGTKVEIK', 60.2),
  ('H4H7795N2 (antibody, human IgG4 S228P, kappa, V domains shown) VH: EVQVVESGGGLVEPGRSLRLSCKASGFTFDDYAMHWVRQTPGKALEWVSGISWSGNNIGYADSVKGRFTISKDDAKNSLYLQMNSLRPEDTALYYCTKDISITGTLDAFDVWGQGTMVTVSS VL: DIQMTQSPISVSASVGDRVTITCRASQGISNWLAWYQQKPGIAPKLLIYSASSLQSGVPSRFRGSGSGTDFTLTIGSLQPEDFATYYCQQAHSFPLTFGGGTKVEIKR', 88.3),
  ('H1M7800N (antibody, mouse IgG1, V domains shown, Human variable regions, mouse IgG1 Fc) VH: EVQLVESGGGLVQPGGSLRLSCAASGFTVSNNYMSWVRQAPGKGLEWVSVIYSGGFTYYTDSVKGRFTISRHNSKNTLYLQMNSLRAEDTAVYYCARYYYDTSDYWTFFDYWGQGTLVTVSS VL: EIVMTQSPATLSVSPGERATLSCRASQSVSSNLAWYQQKPGQAPRLLIYGASTRATGIPARFSGSGSGTEFTLTISSLQSGDFAVYYCQQYNNWPLTFGGGTKVEIN', 527),
  ('H2aM7780N (antibody, mouse IgG2a, V domains shown, Human variable regions, mouse IgG2a Fc (H2aM prefix); also called H2M7780N) VH: QVQLVESGGGVVQSGRSLRLSCAASGFTFSSYGMHWVRQAPGKGLEWVAVIWYDGSNIYYSDSVKGRFTISRANSKNTLYLQMNSLRAEDTAVYYCARPGHWNYFFEYWGQGTLVTVSS VL: DIQMTQSPSSLSASVGDRVTITCRASQSINNYLNWYQQKPGKAPKLLIYTASSLQSGVPSRFSGSGSGTDFTLTISSLQPEDFATYYCQQSYSTPPLTFGQGTQLEIK', 60.5),
  ('H4H7798N (antibody, human IgG4 S228P, kappa, V domains shown) VH: EVQLLESGGVLVQPGGSLRLSCAASGFTFSNFGMTWVRQAPGKGLEWVSGISGGGRDTYFADSVKGRFTISRDNSKNTLYLQMNSLKGEDTAVYYCVKWGNIYFDYWGQGTLVTVSS VL: DIQMTQSPSSLSASVGDSITITCRASLSINTFLNWYQQKPGKAPNLLIYAASSLHGGVPSRFSGSGSGTDFTLTIRTLQPEDFATYYCQQSSNTPFTFGPGTVVDFRR', 10.5),
  ('H1M7789N (antibody, mouse IgG1, V domains shown, Human variable regions, mouse IgG1 Fc) VH: EVQLLESGGGLVQPGGSLRLSCSASGFTFSSYTMNWVRQAPGKGLEWVSGISDTGGNTYYTDSVKGRFTVSRDNSKNTLSLQMNSLRAEDTAVYYCAKDQGGSYPYYFHYWGQGSLVTVSS VL: DIQMTQSPSSLSASVGDRVTITCRASQSISSYLIWYQQKPGTAPKFLIYAASSLQSGVPSRFSGCGSGTDFTLTISSLQPEDFATYYCQQSYSTPPITFGQGTRLEIK', 8.5),
  ('H2aM7791N (antibody, mouse IgG2a, V domains shown, Human variable regions, mouse IgG2a Fc; also called H2M7791N) VH: QMQLQQWGAGLLKPSETLSLTCVVYGGSLNGYYWSWIRQSPGKGLEWIGEIDHSGSTNYNPSLKNRVTMSVDTSKIQFSLKLTSVTVADTAVYYCAREGLLPFDYWGQGTLVTVSS VL: EIVLTQSPGTLSLSPGERVTLSCRASQSVYSNYLAWYQQNPGQAPRLLIYAASNRATGIPDRFSGSGSGTDFTLTISRLEPEDFAVYYCHQYATSPWTFGQGTKVEIK', 50.5),
  ('H2aM7798N (antibody, mouse IgG2a, V domains shown, Human variable regions, mouse IgG2a Fc; also called H2M7798N) VH: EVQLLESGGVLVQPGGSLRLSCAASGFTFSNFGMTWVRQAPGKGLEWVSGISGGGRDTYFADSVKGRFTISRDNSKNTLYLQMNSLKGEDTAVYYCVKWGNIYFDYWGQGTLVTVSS VL: DIQMTQSPSSLSASVGDSITITCRASLSINTFLNWYQQKPGKAPNLLIYAASSLHGGVPSRFSGSGSGTDFTLTIRTLQPEDFATYYCQQSSNTPFTFGPGTVVDFR', 7),
  ('H1M7799N (antibody, mouse IgG1, V domains shown, Human variable regions, mouse IgG1 Fc) VH: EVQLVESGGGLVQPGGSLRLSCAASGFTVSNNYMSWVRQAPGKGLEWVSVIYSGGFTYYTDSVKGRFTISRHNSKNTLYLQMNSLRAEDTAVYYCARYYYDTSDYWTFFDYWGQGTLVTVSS VL: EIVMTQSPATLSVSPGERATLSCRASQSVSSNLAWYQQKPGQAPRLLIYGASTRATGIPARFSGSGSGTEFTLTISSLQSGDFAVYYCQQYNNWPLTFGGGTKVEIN', 530);
